System: Rattus norvegicus
Test Description: Antiallergic activity after intravenous administration using rat reaginic passive cutaneous anaphylaxis (PCA) test.
Assay type: functional
Experimental Conditions: Rattus norvegicus, iv; read-out: ID50 (the source's name)
Just a reminder that ties go to class 0: only ED50 strictly below 3 µmol/kg counts as class 1.

Before answering, review these 3 worked examples.
> print(dat)
                                   compound          tested.on  classification
1  O=C(O)c1cc(=O)c2c(OCC(O)COc3cccc4oc(C(=O)O)cc(=O)c34)cccc2o1 [CROMOLYN SODIUM]  Rattus norvegicus         class 1
2  CC1CCCc2ncc(C(=O)O)c(=O)n21 (configuration not stated)  Rattus norvegicus         class 0
3  Cc1nc2n(c(=O)c1C(=O)O)C(C)CC/C2=N\O (configuration not stated)  Rattus norvegicus         class 0

[in] Please determine if CC1CC=C(Nc2ccccc2)c2ncc(C(=O)O)c(=O)n21 (configuration not stated) is below 3 µmol/kg in terms of ED50.
[out] class 1

[in] Find out if reported ED50 for CCO/N=C1\CCC(C)n2c1ncc(C(=O)O)c2=O (configuration not stated) is less than 3 µmol/kg
[out] class 0

[in] Hello, is ED50 of the following compound strictly smaller than 3 µmol/kg? Cc1ccccc1NC1=CCC(C)n2c1ncc(C(=O)O)c2=O (configuration not stated)
[out] class 0

[in] Just wondering, is ED50 of CC1CC=C(Nc2cccc(F)c2)c2ncc(C(=O)O)c(=O)n21 (configuration not stated) below 3 µmol/kg?
[out] class 1

[in] Determine if CC1CC/C(=N\O)c2ncc(C(=O)O)c(=O)n21 (configuration not stated) shows ED50 strictly lower than 3 µmol/kg.
[out] class 0

----------
Kindly supply the reported ED50 values for the records listed here.
Test system: Rattus norvegicus
Test Description: Antiallergic activity after intravenous administration using rat reaginic passive cutaneous anaphylaxis (PCA) test.
Type: functional
Experimental Conditions: Rattus norvegicus, iv; read-out: ID50 (the source's name)

Reference set (2 entries):
> print(dat)
                                   compound          tested.on  measure   measurement
1  Cc1cccc(NC2=CCC(C)n3c2ncc(C(=O)O)c3=O)c1 (centres undefined)  Rattus norvegicus     ED50  0.74 µmol/kg
2  CCO/N=C1\CCC(C)n2c1ncc(C(=O)OCC)c2=O (centres undefined)  Rattus norvegicus     ED50  41.2 µmol/kg

Report ED50 for each item below.
1. CC1CC=C(N(C)c2ccccc2)c2ncc(C(=O)O)c(=O)n21 (centres undefined)
2. CC1CC=C(Nc2ccc(O)cc2)c2ncc(C(=O)O)c(=O)n21 (centres undefined)

[out]
1: > 100 µmol/kg; 2: 2.93 µmol/kg
